# target.or.test.system: Retinol-binding protein 4 (Homo sapiens)
# assay.summary: Inhibition of human recombinant RBP4-transthyretin interaction by FRET analysis
property.name: IC50 (nM)

- smiles.record: "O=C(c1cnccc1C(F)(F)F)N1CCC(c2ccccc2C(F)(F)F)CC1"
  property.name: "IC50"
  reported.relation: "="
  data.value: 76
- smiles.record: "COc1ccc(Cl)cc1NC(=O)N1CCN(c2ncccc2C(F)(F)F)CC1"
  property.name: "IC50"
  reported.relation: "="
  data.value: 130
- smiles.record: "O=C(Cc1ccccc1C(F)(F)F)N1CCN(c2ncccc2C(F)(F)F)CC1"
  property.name: "IC50"
  reported.relation: ">"
  data.value: 10000
- smiles.record: "O=C(Cc1ccccc1C(F)(F)F)N1CCN(c2ncnc3sc4c(c23)CCC4)CC1"
  property.name: "IC50"
  reported.relation: "="
  data.value: 60
- smiles.record: "Cn1cncc1C(=O)N1CCC(c2ccccc2C(F)(F)F)CC1"
  property.name: "IC50"
  reported.relation: "="
  data.value: 550
- smiles.record: "O=C(c1ccco1)N1CCC(c2ccccc2C(F)(F)F)CC1"
  property.name: "IC50"
  reported.relation: "="
  data.value: 52
- smiles.record: "O=C(c1cc(C(F)(F)F)[nH]n1)N1CCC(c2ccccc2C(F)(F)F)CC1"
  property.name: "IC50"
  reported.relation: "="
  data.value: 120
- smiles.record: "FC(F)(F)c1cccc(CN2CCN(c3ncnc4sc5c(c34)CCC5)CC2)c1"
  property.name: "IC50"
  reported.relation: "="
  data.value: 24
